Property: pEC50; scope: individual compounds
Target: human PPARδ (Homo sapiens, UniProt Q03181)
Construct: expressed in transfected cells; host or cells: CV-1
Sequence (Q03181 whole entry): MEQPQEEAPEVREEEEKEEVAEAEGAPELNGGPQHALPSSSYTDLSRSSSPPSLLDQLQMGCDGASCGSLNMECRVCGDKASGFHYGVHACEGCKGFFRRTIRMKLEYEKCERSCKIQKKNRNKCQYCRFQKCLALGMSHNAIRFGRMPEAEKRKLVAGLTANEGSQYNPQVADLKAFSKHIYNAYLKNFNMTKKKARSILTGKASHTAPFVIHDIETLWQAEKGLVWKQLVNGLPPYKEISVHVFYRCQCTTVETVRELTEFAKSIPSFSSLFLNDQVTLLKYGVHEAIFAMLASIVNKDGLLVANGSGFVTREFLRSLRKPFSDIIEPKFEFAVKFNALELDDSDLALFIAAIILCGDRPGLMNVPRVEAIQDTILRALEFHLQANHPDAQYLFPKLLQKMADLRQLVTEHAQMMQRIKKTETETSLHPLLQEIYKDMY
Sequence (P19793 whole entry partner): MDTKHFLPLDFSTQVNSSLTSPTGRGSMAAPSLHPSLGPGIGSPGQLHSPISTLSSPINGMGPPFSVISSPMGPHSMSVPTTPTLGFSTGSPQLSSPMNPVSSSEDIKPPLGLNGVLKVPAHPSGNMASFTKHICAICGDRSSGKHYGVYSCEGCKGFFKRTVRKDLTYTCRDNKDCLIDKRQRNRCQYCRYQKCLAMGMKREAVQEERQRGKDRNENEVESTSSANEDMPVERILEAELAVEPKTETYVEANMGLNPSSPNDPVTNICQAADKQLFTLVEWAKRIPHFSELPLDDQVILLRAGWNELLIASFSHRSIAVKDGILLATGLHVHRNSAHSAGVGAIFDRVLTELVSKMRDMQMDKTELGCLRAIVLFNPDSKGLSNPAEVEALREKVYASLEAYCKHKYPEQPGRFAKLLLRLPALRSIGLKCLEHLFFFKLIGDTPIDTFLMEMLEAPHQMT
Experiment: Full-length receptor transactivation assay (PPREx3-tk-luc, hRXRα) in CV-1 cells
Type: cell-based
Conditions: full-length hPPARδ + RXRalpha, read-out: Transactivation activity FULL-hPPAR + mRXRalpha (EC50-Um) delta
Protocol: Receptor expression plasmids: Full-length coding sequences for human PPARα, PPARγ and PPARδ were inserted into the mammalian expression vector pcDNA3.1+ or pCMX. The full-length coding sequence for human RXRα was inserted into pcDNA3.1+. Reporter plasmid: PPREx3-tk-luc (3) was used as the reporter plasmid. […] The luciferase and βGAL activity were measured according to the methods of Umesono, K. et al. (4) with slight modifications. […]
Value format note: pEC50 is -log10 of concentration (mol/L); just state the number.

Some entries whose results are on file:
COMPOUND | MEASURE | ASSAY RESULT
Cc1cc(C(=O)CCc2nc(-c3ccc(Cl)cc3O)oc2C(C)C)ccc1OCC(=O)O | pEC50 | 7.24
Cc1cc(C(=O)/C=C/c2sc(-c3ccc(C(F)(F)F)cc3)nc2C(C)C)ccc1OCC(=O)O | pEC50 | 7.72
Cc1cc(C(=O)CCc2sc(-c3ccc(C(F)(F)F)cc3)nc2C(C)C)ccc1OCC(=O)O [drawing 63] | pEC50 | 8.66

Then there is this compound:
Input: Fill in: pEC50 of Cc1cc2c(CCc3nc(-c4ccc(Cl)cc4Cl)oc3C(C)C)noc2cc1OCC(=O)O is ___
Output: 8.15

###

Target: rat PPARδ (Rattus norvegicus)
Construct: expressed in transfected cells; host or cells: CV-1
Sequence (Q62879 139-440 limits assumed): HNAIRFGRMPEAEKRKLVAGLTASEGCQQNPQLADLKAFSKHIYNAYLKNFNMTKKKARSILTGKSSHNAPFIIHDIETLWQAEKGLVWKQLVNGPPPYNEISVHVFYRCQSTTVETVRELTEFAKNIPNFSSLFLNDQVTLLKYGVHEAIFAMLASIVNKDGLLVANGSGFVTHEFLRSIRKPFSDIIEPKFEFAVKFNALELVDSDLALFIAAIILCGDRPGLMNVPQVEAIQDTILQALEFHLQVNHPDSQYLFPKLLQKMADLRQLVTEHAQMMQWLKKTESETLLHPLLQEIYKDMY
Experiment: GAL4-PPAR chimera transactivation assay in CV-1 cells at 10% or 0.1% serum (Example 4)
Type: cell-based
Settings: 10% serum, read-out: GAL4-chimera (rat) EC50 (μM) hPPARδ
MEASURE: EC50 (µM)
Express the result in µM but write the number alone.

SMILES STRING | READOUT UNIT | ASSAY RESULT
Cc1cc(C(=O)CCc2sc(-c3ccc(C(F)(F)F)cc3)nc2C(C)C)ccc1OCC(=O)O | µM | 0.692

Input: Fill in: EC50 of Cc1cc(SCc2sc(-c3ccc(C(F)(F)F)cc3)nc2C)ccc1OCC(=O)O is ___
Output: 0.427

###

Target: human PPARγ1 (Homo sapiens, UniProt P37231)
Construct: PPARγ1 (amino acids 176-477)
Sequence (P37231 204-505): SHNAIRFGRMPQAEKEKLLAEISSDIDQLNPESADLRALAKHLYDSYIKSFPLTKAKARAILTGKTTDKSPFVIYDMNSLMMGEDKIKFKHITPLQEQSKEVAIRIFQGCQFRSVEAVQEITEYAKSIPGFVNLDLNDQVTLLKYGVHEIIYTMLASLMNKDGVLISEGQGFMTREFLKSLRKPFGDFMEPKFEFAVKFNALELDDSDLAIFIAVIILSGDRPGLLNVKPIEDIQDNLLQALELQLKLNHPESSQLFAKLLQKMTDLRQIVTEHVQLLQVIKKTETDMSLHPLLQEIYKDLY
Assay: GAL4-PPAR chimera receptor transactivation assay in CV-1 cells (Example 3)
Settings: GAL4 DBD-hPPARγ LBD chimera, read-out: Transactivation activity GAL 4 DBD-hPPAR LBD (EC50-Um) gamma
MEASURE: EC50

Input: Fill in: EC50 of Cc1cc2c(CCc3nc(-c4ccc(Cl)cc4Cl)oc3C(C)C)noc2cc1OCC(=O)O is ___
Output: > 10 µM

Input: Fill in: EC50 of Cc1cc([C@H](O)CCc2sc(-c3ccc(C(F)(F)F)cc3)nc2C(C)C)ccc1OCC(=O)O is ___
Output: > 10 µM

Input: Fill in: EC50 of Cc1cc(C(=O)/C=C/c2sc(-c3ccc(C(F)(F)F)cc3)nc2C(C)C)ccc1OCC(=O)O is ___
Output: > 10 µM

Input: Fill in: EC50 of Cc1cc(C(=O)CCc2nc(-c3ccc(Cl)cc3O)oc2C(C)C)ccc1OCC(=O)O is ___
Output: > 10 µM

Input: Fill in: EC50 of Cc1cc(C(=O)CCc2sc(-c3ccc(C(F)(F)F)cc3)nc2C(C)C)ccc1OCC(=O)O [drawing 63] is ___
Output: > 8 µM

Input: Fill in: EC50 of Cc1cc(C(=O)CCc2sc(-c3ccc(C(F)(F)F)cc3)nc2C(C)C)ccc1SCC(=O)O is ___
Output: 6.7 µM

Input: Fill in: EC50 of Cc1cc(C(O)CCc2sc(-c3ccc(C(F)(F)F)cc3)nc2C(C)C)ccc1OCC(=O)O (stereo not shown) is ___
Output: > 10 µM
